Biological target: TAK1-TAB1 fusion protein (Homo sapiens)
Construct: purchased Carna
Assay: TAK1 biochemical assay (AlphaScreen, GST-MAP2K7 substrate)
Counter-ions that a name gives are not always drawn.
Readout Kind: IC50

Some solved entries appear below for comparison.
CC(=O)N1CCC(n2cc(-c3cnc(N)c4oc(C5=CCNCC5)cc34)cn2)CC1 [Example 95, hydrochloride]: 100 to 1000 nM
Nc1ncc(-c2cnn([C@H]3CC[C@H](O)CC3)c2)c2c(Cl)c(-c3cccc4nnsc34)oc12: < 100 nM
Cc1nn(C)c(C)c1-c1cnc(N)c2oc(-c3csc4cnccc34)cc12: > 10000 nM

# input for lookup
[in] Give a short answer stating reported IC50 for COc1nn(C)cc1-c1cnc(N)c2oc(-c3csc4cnccc34)cc12 .
[out] 100 to 1000 nM

====

Target: TAK1-TAB1 fusion protein (Homo sapiens)
Construct: purchased Carna
Test: TAK1 biochemical assay (AlphaScreen, GST-MAP2K7 substrate)
Settings: TAK1-TAB1 fusion protein, GST-MAP2K7 substrate; read-out: mean TAK1 IC50 (Col. A)
Counter-ions that a name gives are not always drawn.
Readout Kind: IC50

CC(C)(C)OC(=O)N1CCC(n2cc(-c3cnc(N)c4oc(-c5cccc6cnsc56)cc34)cn2)CC1: 100 to 1000 nM
Nc1ncc(-c2cnn(C3CCNCC3)c2)c2cc(-c3cccc4cnsc34)oc12: < 100 nM

[in] Using known records, supply IC50 for Nc1ncc(-c2cnn([C@H]3CC[C@H](O)CC3)c2)c2cc(-c3cccc4cnsc34)oc12
[out] < 100 nM

[in] Give me measured IC50, please, for this compound: Nc1ncc(-c2cnn(C3CCNCC3)c2)c2cc(-c3cccc4ccsc34)oc12 [Example 17, hydrochloride]
[out] 1000 to 10000 nM

[in] Determine from records and report IC50 for CS(=O)(=O)N1CCC(n2cc(-c3cnc(N)c4oc(-c5cccc6cnccc56)cc34)cn2)CC1
[out] 100 to 1000 nM

[in] Look up and state reported IC50 for Nc1ncc(-c2cnn([C@H]3CC[C@H](O)CC3)c2)c2cc(-c3csc4cnncc34)oc12 [Example 268, bistrifluoroacetate]
[out] < 100 nM

====

Parameter IC50: see the listing below.
Target: TAK1-TAB1 fusion protein (Homo sapiens, UniProt O43318)
Construct: purchased Carna
Sequence (O43318 with tags, fused parts or gaps limits assumed): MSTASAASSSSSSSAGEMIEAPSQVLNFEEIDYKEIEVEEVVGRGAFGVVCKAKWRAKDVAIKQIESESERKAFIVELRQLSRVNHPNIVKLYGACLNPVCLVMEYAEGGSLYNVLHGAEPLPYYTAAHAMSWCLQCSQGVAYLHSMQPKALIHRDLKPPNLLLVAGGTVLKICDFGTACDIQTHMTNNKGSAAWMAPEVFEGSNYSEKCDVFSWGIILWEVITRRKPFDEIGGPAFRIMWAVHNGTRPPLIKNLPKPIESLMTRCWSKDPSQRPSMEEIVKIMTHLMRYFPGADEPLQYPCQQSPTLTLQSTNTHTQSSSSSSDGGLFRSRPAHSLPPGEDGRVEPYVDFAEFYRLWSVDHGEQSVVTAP
Assay: TAK1 biochemical assay (AlphaScreen, GST-MAP2K7 substrate)
Conditions: TAK1-TAB1 fusion protein, GST-MAP2K7 substrate; read-out: mean TAK1 IC50 (Col. A)
Where a name gives a salt, the structure may show the parent alone.

The cases that follow already have their IC50 on record.
CC(=O)N1CCC(n2cc(-c3cnc(N)c4oc(-c5c(F)ccc6ncsc56)cc34)cn2)CC1 [Example 358, bis(trifluoroacetate)]: 0.1 to 1 µM
CC(=O)N1CCC(n2cc(-c3cnc(N)c4oc(-c5ccc(O)c(F)c5)cc34)cn2)CC1: 0.1 to 1 µM
CC(=O)N1CCC(n2cc(-c3cnc(N)c4oc(-c5csc6c(=O)[nH]ccc56)cc34)cn2)CC1 [Example 257, trifluoroacetic Acid Salt]: 1 to 10 µM
CC(=O)N1CCC(n2cc(-c3cnc(N)c4oc(-c5cnn(Cc6ccncc6)c5)cc34)cn2)CC1: 1 to 10 µM
Nc1ncc(-c2cnn(CC(O)CO)c2)c2cc(-c3cccc4cnccc34)oc12 (stereo not drawn): 1 to 10 µM

[in] Please report the measured IC50 for Nc1ncc(-c2cnn(C3CC4(C3)OCCO4)c2)c2cc(-c3csc4cnccc34)oc12
[out] < 0.1 µM

[in] Annotate the molecule Nc1ncc(-c2cnn([C@H]3CC[C@H](O)CC3)c2)c2cc(-c3csc4cnc(F)cc34)oc12 with its measured IC50.
[out] < 0.1 µM

[in] Give IC50 for CC(=O)N1CCC(n2cc(-c3cnc(N)c4oc(-c5cccc6sncc56)cc34)cn2)CC1 [Example 241, diformate Salt]
[out] < 0.1 µM

[in] Return IC50 (reported value) for this molecule: CC(=O)N1CCC(n2cc(-c3cnc(N)c4oc(-c5cccc(S(N)(=O)=O)c5)cc34)cn2)CC1
[out] 1 to 10 µM

[in] Give me measured IC50, please, for this molecule: CC(C)C(=O)N1CCC(n2cc(-c3cnc(N)c4oc(-c5cccc6cnccc56)cc34)cn2)CC1
[out] 0.1 to 1 µM
